assay: activity coefficient (dimensionless); of the first substance listed, at infinite dilution; xn = mol fraction of the nth substance listed; conditions: 333 K; 101 kPa; Liquid; Chromatography; x1 = 0
reported.property: activity coefficient
Kindly provide the number alone.

Cc1cccc(C)c1 [1,3-dimethylbenzene] + CCCCCCCC[N+]1(C)CCCC1.O=S(=O)([N-]S(=O)(=O)C(F)(F)F)C(F)(F)F :: 0.84
Cc1ccccc1 [toluene] + CCCCCCCC[N+]1(C)CCCC1.O=S(=O)([N-]S(=O)(=O)C(F)(F)F)C(F)(F)F :: 0.78
CO [methanol] + CCCCCC[N+]1(C)CCCC1.O=S(=O)([N-]S(=O)(=O)C(F)(F)F)C(F)(F)F :: 1.77
CCOCC [diethyl ether] + CCCCCC[N+]1(C)CCCC1.O=S(=O)([N-]S(=O)(=O)C(F)(F)F)C(F)(F)F :: 1.76
CCCCCCCCCC [decane] + CCCCCC[N+]1(C)CCCC1.O=S(=O)([N-]S(=O)(=O)C(F)(F)F)C(F)(F)F :: 19

## Task Could you tell me which activity coefficient is on file for CC1CCCCC1 [methylcyclohexane] + CCCCCC[N+]1(C)CCCC1.O=S(=O)([N-]S(=O)(=O)C(F)(F)F)C(F)(F)F ?
## Result 6.07

## Task # iterate: c1ccccc1 [benzene] + CCCCCCCC[N+]1(C)CCCC1.O=S(=O)([N-]S(=O)(=O)C(F)(F)F)C(F)(F)F
## Result 0.62
